# Tested on: SK-OV-3
# METHOD: Anticancer activity against human SKOV3 cells after 48 hrs by sulforhodamine B assay
# Format: functional
# EXPERIMENTAL PARAMETERS: SK-OV-3, 48 h
PARAMETER MEASURED: GI50 (µM)
Just the number please, in µM, no unit attached.

CCC(NC(=O)Nc1nc2ccccc2s1)(C(F)(F)F)C(F)(F)F; 17.8
CC(NC(=O)Nc1nc2ccccc2s1)(C(F)(F)F)C(F)(F)F; 52.5
O=C(Nc1nc2ccccc2s1)NC(C(F)(F)F)C(F)(F)F; 30.9
CNC(=O)Nc1ccccc1; 100

We next turn to a different molecule, shown below.
Task: Form field: reported GI50 of O=c1[nH]cc(F)c(=O)[nH]1
Result: 21.9

###

# Tested on: HOP-92
# METHOD: Anticancer activity against human HOP92 cells after 48 hrs by sulforhodamine B assay
# Type: functional
# EXPERIMENTAL PARAMETERS: HOP-92, 48 h
Under this convention, label 1 denotes GI50 strictly below 60 µM and label 0 denotes GI50 at or above 60 µM.

See these solved cases before continuing.
O=C(Nc1nccs1)NC(C(F)(F)F)C(F)(F)F; label 1
CC(NC(=O)Nc1nc2ccccc2s1)(C(F)(F)F)C(F)(F)F; label 0
O=c1[nH]cc(F)c(=O)[nH]1; label 0
CNC(=O)Nc1ccccc1; label 0
O=C(Nc1nc2ccccc2s1)NC(C(F)(F)F)C(F)(F)F; label 1

Now consider the entry below.
Task: Does the reported GI50 of the following molecule sit strictly below 60 µM? CCC(NC(=O)Nc1nc2ccccc2s1)(C(F)(F)F)C(F)(F)F
Result: label 1

###

# Test system: LOX IMVI
# METHOD: Anticancer activity against human LOXIMVI cells after 48 hrs by sulforhodamine B assay
# Format: functional
Reported GI50 values are given for each entry in this list.
Just the number please, in µM, no unit attached.

Below, 3 compounds whose answers are already recorded.
CC(NC(=O)Nc1nc2ccccc2s1)(C(F)(F)F)C(F)(F)F; 36.3
CCC(NC(=O)Nc1nc2ccccc2s1)(C(F)(F)F)C(F)(F)F; 18.2
CCC(NC(=O)Nc1nccs1)(C(F)(F)F)C(F)(F)F; 72.4

Task: Form field: reported GI50 of O=c1[nH]cc(F)c(=O)[nH]1
Result: 0.245

Task: Form field: reported GI50 of CNC(=O)Nc1ccccc1
Result: 100

Task: Form field: reported GI50 of O=C(Nc1nccs1)NC(C(F)(F)F)C(F)(F)F
Result: 58.9

Task: Form field: reported GI50 of O=C(Nc1nc2ccccc2s1)NC(C(F)(F)F)C(F)(F)F
Result: 22.9

###

Reported GI50 values are given for each entry in this list.
# Tested on: SF-539
# METHOD: Anticancer activity against human SF539 cells after 48 hrs by sulforhodamine B assay
# Type: functional
# EXPERIMENTAL PARAMETERS: SF-539, 48 h

Below, 3 compounds whose answers are already recorded.
O=c1[nH]cc(F)c(=O)[nH]1; 0.0631 µM
O=C(Nc1nc2ccccc2s1)NC(C(F)(F)F)C(F)(F)F; 26.9 µM
CCC(NC(=O)Nc1nccs1)(C(F)(F)F)C(F)(F)F; > 100 µM

Task: Form field: reported GI50 of CNC(=O)Nc1ccccc1
Result: 100 µM

Task: Form field: reported GI50 of O=C(Nc1nccs1)NC(C(F)(F)F)C(F)(F)F
Result: > 100 µM

Task: Form field: reported GI50 of CCC(NC(=O)Nc1nc2ccccc2s1)(C(F)(F)F)C(F)(F)F
Result: 18.2 µM

Task: Form field: reported GI50 of CC(NC(=O)Nc1nc2ccccc2s1)(C(F)(F)F)C(F)(F)F
Result: 24.5 µM

###

Reported GI50 values are given for each entry in this list.
# Test system: IGROV-1
# METHOD: Anticancer activity against human IGROV1 cells after 48 hrs by sulforhodamine B assay
# Type: functional
# EXPERIMENTAL PARAMETERS: IGROV-1, 48 h

CC(NC(=O)Nc1nc2ccccc2s1)(C(F)(F)F)C(F)(F)F; 41.7 µM

Task: Form field: reported GI50 of O=C(Nc1nccs1)NC(C(F)(F)F)C(F)(F)F
Result: 95.5 µM

Task: Form field: reported GI50 of CCC(NC(=O)Nc1nc2ccccc2s1)(C(F)(F)F)C(F)(F)F
Result: 17 µM

Task: Form field: reported GI50 of CNC(=O)Nc1ccccc1
Result: 100 µM

Task: Form field: reported GI50 of O=C(Nc1nc2ccccc2s1)NC(C(F)(F)F)C(F)(F)F
Result: 38 µM

Task: Form field: reported GI50 of O=c1[nH]cc(F)c(=O)[nH]1 [FLUOROURACIL]
Result: 1.23 µM

Task: Form field: reported GI50 of CCC(NC(=O)Nc1nccs1)(C(F)(F)F)C(F)(F)F
Result: > 100 µM

###

# Tested on: U-251
# METHOD: Anticancer activity against human U251 cells after 48 hrs by sulforhodamine B assay
# Format: functional
# EXPERIMENTAL PARAMETERS: U-251, 48 h
Under this convention, 1 denotes GI50 strictly below 20 µM and 0 denotes GI50 at or above 20 µM.

CC(NC(=O)Nc1nc2ccccc2s1)(C(F)(F)F)C(F)(F)F; 0
O=C(Nc1nc2ccccc2s1)NC(C(F)(F)F)C(F)(F)F; 0
O=C(Nc1nccs1)NC(C(F)(F)F)C(F)(F)F; 0
CCC(NC(=O)Nc1nc2ccccc2s1)(C(F)(F)F)C(F)(F)F; 1
CCC(NC(=O)Nc1nccs1)(C(F)(F)F)C(F)(F)F; 0

Task: Does the reported GI50 of the following molecule sit strictly below 20 µM? CNC(=O)Nc1ccccc1
Result: 0

Task: Does the reported GI50 of the following molecule sit strictly below 20 µM? O=c1[nH]cc(F)c(=O)[nH]1
Result: 1
